# condition_parameters: in isopropanol, 318.15 K

smiles_string | solubility (mole fraction)
O=c1c2ccccc2nc2n1CCc1c-2[nH]c2ccccc12 | 0.000396

====

# condition_parameters: in methanol, 308.15 K
result_type: solubility (mole fraction)

smiles_string | result_type | measured
O=c1c2ccccc2nc2n1CCc1c-2[nH]c2ccccc12 | solubility (mole fraction) | 0.000148

====

# condition_parameters: in ethanol, 288.15 K

smiles_string | solubility (mole fraction)
O=c1c2ccccc2nc2n1CCc1c-2[nH]c2ccccc12 | 0.00016

====

# condition_parameters: in isopropanol, 293.15 K
result_type: solubility (mole fraction)

smiles_string | result_type | measured
O=c1c2ccccc2nc2n1CCc1c-2[nH]c2ccccc12 | solubility (mole fraction) | 0.000124

====

# condition_parameters: in acetone, 298.15 K
result_type: solubility (mole fraction)

smiles_string | measured
O=c1c2ccccc2nc2n1CCc1c-2[nH]c2ccccc12 | 0.00106

====

# condition_parameters: in isopropanol, 313.15 K

smiles_string | solubility (mole fraction)
O=c1c2ccccc2nc2n1CCc1c-2[nH]c2ccccc12 | 0.000318

====

# condition_parameters: in water, 308.15 K

smiles_string | solubility (mole fraction)
O=c1c2ccccc2nc2n1CCc1c-2[nH]c2ccccc12 | 7.6e-09

====

# condition_parameters: in water, 288.15 K

smiles_string | solubility (mole fraction)
O=c1c2ccccc2nc2n1CCc1c-2[nH]c2ccccc12 | 2.02e-09

====

# condition_parameters: in ethanol, 318.15 K
result_type: solubility (mole fraction)

smiles_string | measured
O=c1c2ccccc2nc2n1CCc1c-2[nH]c2ccccc12 | 0.00044

====

# condition_parameters: in water, 313.15 K
result_type: solubility (mole fraction)

smiles_string | measured
O=c1c2ccccc2nc2n1CCc1c-2[nH]c2ccccc12 | 1.04e-08

====

# condition_parameters: in water, 298.15 K

smiles_string | solubility (mole fraction)
O=c1c2ccccc2nc2n1CCc1c-2[nH]c2ccccc12 | 3.97e-09

====

# condition_parameters: in acetone, 308.15 K
result_type: solubility (mole fraction)

smiles_string | result_type | measured
O=c1c2ccccc2nc2n1CCc1c-2[nH]c2ccccc12 | solubility (mole fraction) | 0.00139

====

# condition_parameters: in water, 318.15 K

smiles_string | solubility (mole fraction)
O=c1c2ccccc2nc2n1CCc1c-2[nH]c2ccccc12 | 1.38e-08
